# Test system: SK-OV-3 ovarian
# Assay Explanation: NCI tumour cell line growth inhibition, 48 h
Please go through the items and note down their GI50.

O=C(c1ccco1)c1nc2ccc(C(F)(F)F)cc2[n+]([O-])c1C(F)(F)F; 33.4 µM
O=C(O)CCCCC(CCSCc1ccccc1)SCc1ccccc1 (stereo not given); > 88.7 µM
COc1cccc(/C=N/NC(=O)c2ccccc2Nc2ccnc(C(F)(F)F)c2)c1O; 0.583 µM
O=C1/C(=C/c2ccc(Br)cc2)C=C(c2ccccc2)N1CCc1ccccc1; 1.55 µM
N#Cc1ccc(C#Cc2ccccc2C#CCCCCO)cc1; 18.2 µM
COc1ccc2[nH]c(O)c(/C=c3/cc4c(c(-c5cc(OC)c(OC)c(OC)c5)n3)=Nc3ccccc3-4)c2c1; > 100 µM
O=C1c2cccc(NCCN=Cc3cc(O)ccc3O)c2C(=O)c2c(NCCN=Cc3cc(O)ccc3O)cccc21; 2.34 µM
CCNCCNc1cc(-c2ccc(C(=O)OC)cc2)c(C#N)c2nc3ccccc3n12; 2 µM
COC(=O)c1cc2c3ccccc3[nH]c2c2ncccc12; 43.3 µM

Assay SK-OV-3 ovarian, sample "O=C(Nc1ccc(N2CCNCC2)cc1)c1[nH]ncc1Nc1cc(Oc2ccccc2)ncn1" , GI50 read: 1.99 µM
